These measurements were taken from ChEMBL document CHEMBL4513216.

Listed here: items and their measured cytotoxicity at 10 µM.
Assay: Toxicity liver stage against HepG2, at 10uM
Format: cell-based
Parameters: test concentration 10 uM, cell line HepG2-A16-CD81EGFP
Settings: human, HepG2-A16-CD81EGFP cells; read-out: INHIBITION
Return type: number; implicit unit %.

[
  {
    "molecule": "Cn1ccnc1C(=O)N1C[C@@H]2CCN(c3cnccn3)C[C@@H]2C1",
    "cytotoxicity at 10 µM (%)": -97
  },
  {
    "molecule": "CC1=C(C(=O)NCc2cccnc2-n2cnc3ccccc32)OCCO1",
    "cytotoxicity at 10 µM (%)": -2
  },
  {
    "molecule": "CC(=O)Nc1nc(CN2CCOC(Cn3cc(C)cn3)C2)cs1 (stereo unspecified)",
    "cytotoxicity at 10 µM (%)": 11.3
  }
]

Look up cytotoxicity at 10 µM for this molecule: CCS(=O)(=O)c1ccc(N2CCC(NC(=O)NC(C)CO)CC2)cc1 (stereo unspecified)
13.9

Which cytotoxicity at 10 µM is reported for this molecule? CCOc1ccc(C(=O)CCC(=O)NCCc2nncn2CC)cc1C
-10.7

Can you share its cytotoxicity at 10 µM? I mean this molecule: COc1c(C2CCCN2C(=O)c2cnn(C)c2C2CC2)c(C)nn1C (stereo unspecified)
-2.43
